Catalogue of CC50 at 240 h values
Assay: Cytotoxicity against human PHA-stimulated PBMC after 10 days by MTS assay
Assay type: cell-based
MEASUREMENT_KIND: CC50 at 240 h

>  <COMPOUND>
O=C(O)c1ccc(Sc2ncc(CN3CCC(N4C(=O)N(C5CCOCC5)C[C@H]4c4cccc(Cl)c4)CC3)cn2)cc1

>  <RECORDED_RESULT>
> 30.7 µM

$$$$
>  <COMPOUND>
Cc1cc(Cl)nc(C)c1C(=O)NCCC(C)N1CCC(N2C(=O)N(Cc3ccncc3)C[C@H]2c2ccccc2)CC1 (mixture of isomers)

>  <RECORDED_RESULT>
> 32.4 µM

$$$$
>  <COMPOUND>
Cc1cc(Cl)nc(C)c1C(=O)NCCC(C)N1CCC(N2C(=O)N(C3CCC3)C[C@H]2c2ccccc2)CC1 (mixture of isomers)

>  <RECORDED_RESULT>
> 33.5 µM

$$$$
>  <COMPOUND>
Cc1nc(Oc2ccc(C(=O)O)cc2)ccc1CN1CCC(N2C(=O)N(C3CCOCC3)C[C@H]2c2cccc(Cl)c2)CC1

>  <RECORDED_RESULT>
> 30.5 µM

$$$$
>  <COMPOUND>
O=C(O)c1ccc(Oc2ccc(CN3CCC(N4C(=O)N(C5CCCCC5)C[C@H]4c4ccccc4)CC3)cc2)cc1

>  <RECORDED_RESULT>
> 30 µM

$$$$
>  <COMPOUND>
Cc1cc(Cl)nc(C)c1C(=O)N1CCC(C)(N2CCC(N3C(=O)N(C4CCCCC4)C[C@H]3c3ccccc3)CC2)CC1

>  <RECORDED_RESULT>
> 35.8 µM

$$$$
>  <COMPOUND>
Cc1nc(Oc2ccc(C(=O)O)cc2)ccc1CN1CCC(N2C(=O)N(C3CCOCC3)C[C@H]2c2ccccc2)CC1

>  <RECORDED_RESULT>
> 31.3 µM

$$$$
